All values here come from patent US20080267974A1.

Collected Affinity values appear next to each entry.
tested_on: tumor necrosis factor alpha (TNFα) (human, UniProt P01375 77-233)
Sequence (P01375 77-233 limits assumed): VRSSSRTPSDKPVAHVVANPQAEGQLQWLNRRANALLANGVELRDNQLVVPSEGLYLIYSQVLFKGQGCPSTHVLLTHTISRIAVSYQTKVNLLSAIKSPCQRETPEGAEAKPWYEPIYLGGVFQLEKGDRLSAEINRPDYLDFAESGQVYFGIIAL
method_notes: affinity by IC50 ELISA (so named in paragraph 380)
# number only, unit nM dropped from output

Consider the worked cases shown below.
I have this binder here, MAb 1210 (antibody, V domains shown, IgG1/kappa, CHO; also called H1557/L332) VH: EVQLLESGGGLIQPGGSLRLSCAASGFTVSSNYMSWVRQAPGKGLEWVSVIYSGGRTYYADSVKGRFTISRDSSKNTLYLQMNSLRAEDTAVYYCARNYYGSTVDYWGQGTLVTVSS VL: EIVLTQSPVTLSVPPGERASLSCRASQNIYTAVAWYQQKPGQAPRLLIYGASTRATGIPARFSGGGSGTDYTLTISSLESEDFAVYHCQQWHSWPLTFGGGTKLEIK , and I need its recorded Affinity.
0.14

I have this binder here, MAb 815 (antibody, V domains shown, IgG1/kappa, CHO; also called H1192/L311) VH: EVQLLESGGGLIQPGGSLRLSCAASGFTVSSNYMSWVRQAPGKGLEWVSVIYSGGRTYYADSVKGRFTISRDSSKNTLYLQMNSLRAEDTAVYYCARNYYGSTYDYWGQGTLVTVSS VL: EIVLTQSPVTLSVPPGERASLSCRASQNIYTAVAWYQQKPGQAPRLLIYGASTRATGIPARFSGGGSGTDYTLTISSLESEDFAVYHCQQYHAWPLTFGGGTKLEIK , and I need its recorded Affinity.
0.36

***
I have this binder here, MAb 1066 (antibody, V domains shown, IgG1/kappa, CHO; also called H1487/L250) VH: EVQLLESGGGLIQPGGSLRLSCAASGFTVSSNYMSWVRQAPGKGLEWVSVIYSGGRTYYADSVKGRFTISRDSSKNTLYLQMNSLRAEDTAVYYCARNYYGSTLDYWGQGTLVTVSS VL: EIVLTQSPVTLSVPPGERASLSCRASQNIYTAVAWYQQKPGQAPRLLIYGASTRATGIPARFSGGGSGTDYTLTISSLESEDFAVYHCQQYHSWPLTFGGGTKLEIK , and I need its recorded Affinity.
0.13
